Exercise: state measured fold induction at 100 µg/mL for each of the molecules provided.
Tested on: elastin
Assay: Induction of elastin
Assay type: cell-based
Conditions: final dose 100 μg/ml
Reply briefly: the number, and no unit.

Form: item `O=C1C[C@@H](c2ccc(O)cc2)Oc2cc(O)cc(O)c21` ; test system elastin; fold induction at 100 µg/mL: 1.5

Form: item `C=CCc1ccc(O)c(-c2cc(CC=C)ccc2O)c1` ; test system elastin; fold induction at 100 µg/mL: 2.8

Form: item `O=c1c(O)c(-c2cc(O)c(O)c(O)c2)oc2cc(O)cc(O)c12` ; test system elastin; fold induction at 100 µg/mL: 2.8

Form: item `COc1cc(-c2oc3cc(O)cc(O)c3c(=O)c2O)ccc1O` ; test system elastin; fold induction at 100 µg/mL: 4

Form: item `O=C(/C=C/c1ccc(O)c(O)c1)OCCc1ccccc1` ; test system elastin; fold induction at 100 µg/mL: 2

Form: item `O=c1c(O)c(-c2ccc(O)cc2)oc2c(O)c(O)cc(O)c12` ; test system elastin; fold induction at 100 µg/mL: 2

====

System: SSL-induced skin tumors in SKH-1 hairless mice
Conditions: SSL-exposed; compound in cream, percent per TABLE 5; 15 mice
Mark criterion met for Total volume of tumors under 200 mm^3, criterion not met if at or over.

Identify whether the compound [O]=[Zn] [Zinc oxide] records Total volume of tumors below 200 mm^3. criterion met

Identify whether the compound CCCCC(CC)COC(=O)c1ccccc1O (stereo not shown) [Octisalate] records Total volume of tumors below 200 mm^3. criterion not met

Identify whether the compound CC1CC(OC(=O)c2ccccc2O)CC(C)(C)C1 (stereo not shown) [Homosalate] records Total volume of tumors below 200 mm^3. criterion not met

Identify whether the compound `COc1ccc(C(=O)c2ccccc2)c(O)c1` records Total volume of tumors below 200 mm^3. criterion not met

Identify whether the compound CCCCC(CC)COC(=O)C=Cc1ccc(OC)cc1 (stereo not shown) [Octinoxate] records Total volume of tumors below 200 mm^3. criterion met

Identify whether the compound `COc1ccc(C(=O)CC(=O)c2ccc(C(C)(C)C)cc2)cc1` records Total volume of tumors below 200 mm^3. criterion not met

Identify whether the compound CCCCC(CC)COC(=O)C(C#N)=C(c1ccccc1)c1ccccc1 (stereo not shown) records Total volume of tumors below 200 mm^3. criterion not met

====

Tested on: SSL-induced skin tumors in SKH-1 hairless mice
Conditions: no SSL exposure; compound in cream, percent per TABLE 5
endpoint_label: Total/Avg. no. of tumors
Reply briefly: the number, and no unit.

Sample CCCCC(CC)COC(=O)C=Cc1ccc(OC)cc1 (stereo not shown) [Octinoxate] ; Total/Avg. no. of tumors observed: 0

Sample `COc1ccc(C(=O)c2ccccc2)c(O)c1` ; Total/Avg. no. of tumors observed: 0

Sample CCCCC(CC)COC(=O)c1ccccc1O (stereo not shown) [Octisalate] ; Total/Avg. no. of tumors observed: 0

Sample CC1CC(OC(=O)c2ccccc2O)CC(C)(C)C1 (stereo not shown) [Homosalate] ; Total/Avg. no. of tumors observed: 0

Sample CCCCC(CC)COC(=O)C(C#N)=C(c1ccccc1)c1ccccc1 (stereo not shown) ; Total/Avg. no. of tumors observed: 0

Sample [O]=[Zn] [Zinc oxide] ; Total/Avg. no. of tumors observed: 0

Sample `COc1ccc(C(=O)CC(=O)c2ccc(C(C)(C)C)cc2)cc1` ; Total/Avg. no. of tumors observed: 0
